EXPERIMENTAL TARGET: T1, monkey GPC3 on HEK293T-monkey GPC3 cells (monkey)
T1 construct: whole, on cells
ASSAY COMMENT: FACS on HEK293T-monkey GPC3 cells;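 further: flow cytometry binding of test antibodies to the cells, read as mean fluorescence intensity, with half-maximal concentration taken from fitted curves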
MEASUREMENT TYPE: pEC50
Numbers only, as −log10 of the molar value.

{"columns": ["BINDER", "MEASUREMENT TYPE", "OBSERVED VALUE"],
 "data": [
  ["F1.42.8 (antibody, human IgG1, kappa, V domains shown, Human-murine chimeric antibody) VH: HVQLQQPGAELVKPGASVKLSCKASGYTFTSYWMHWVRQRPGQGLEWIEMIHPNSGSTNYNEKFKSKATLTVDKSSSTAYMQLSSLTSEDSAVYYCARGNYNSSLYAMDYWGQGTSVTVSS VL: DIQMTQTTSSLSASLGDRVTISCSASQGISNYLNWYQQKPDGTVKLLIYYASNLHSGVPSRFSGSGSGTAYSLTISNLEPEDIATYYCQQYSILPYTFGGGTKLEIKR", "pEC50", 9.57],
  ["F4.21.16 (antibody, human IgG1, kappa, V domains shown, Human-murine chimeric antibody) VH: DVQLQESGPGLVKPSQSLSLTCSVTGYSITSGYYWNWIRQFPGNKLEWMGYISYDVTVNYNPSLKNRISITRDTSKNQFFLKLNSVTTEDTATYYCATITSVASMDHWGQGTSVTVSS VL: DILMTQTPLSLPVSLGDQASISCRSSQNIVHRNGNTYLEWYLQKPGQSPKLLLYKVSNRFSGVPDRFSGSGSGTDFTLKISRVEAEDLGIYYCFQGSHFPFTFGSGTKLEIKR", "pEC50", 8.49],
  ["F2.55.11 (antibody, human IgG1, kappa, V domains shown, Human-murine chimeric antibody) VH: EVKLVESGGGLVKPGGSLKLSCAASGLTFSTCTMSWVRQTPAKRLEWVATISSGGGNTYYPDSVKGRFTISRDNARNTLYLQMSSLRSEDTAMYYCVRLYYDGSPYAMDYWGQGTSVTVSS VL: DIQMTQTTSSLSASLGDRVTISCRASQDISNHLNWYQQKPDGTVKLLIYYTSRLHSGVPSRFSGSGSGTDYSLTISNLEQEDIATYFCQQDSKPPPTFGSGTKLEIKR", "pEC50", 9.51]
]}

Now look at this entry.
// fetch pEC50 given entry F1.83.6 (antibody, human IgG1, kappa, V domains shown, Human-murine chimeric antibody) VH: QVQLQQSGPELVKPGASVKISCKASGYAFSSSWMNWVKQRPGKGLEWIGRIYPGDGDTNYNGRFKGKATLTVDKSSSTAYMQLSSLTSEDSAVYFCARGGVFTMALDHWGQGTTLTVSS VL: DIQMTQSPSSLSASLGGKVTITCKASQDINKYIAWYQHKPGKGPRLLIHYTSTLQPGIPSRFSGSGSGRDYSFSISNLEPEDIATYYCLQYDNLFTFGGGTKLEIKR
9.28
